Observed Ki for rhesus (Macacca Mulatta) H3 receptor (Macaca mulatta, UniProt Q865E1), reported per entry below.
Where a name gives a salt, the structure may show the parent alone.
readout.type: Ki (µM)

>  <compound>
Cc1nc(N2CC[C@@H](N3CCC[C@@H]3C)C2)ccc1N1CCC2(CCOCC2)C1=O

>  <unit.of.measure>
µM

>  <Ki>
0.0376

$$$$

(a) Cc1nc(N2CC[C@@H](N3CCC[C@@H]3C)C2)ccc1N1CCC2(CCNCC2)C1=O [Example 8, hydrochloride]
(b) Cc1nc(N2CC[C@@H](N3CCC[C@@H]3C)C2)ccc1N1CCCC2(CCNCC2)C1=O [Example 9, hydrochloride]
(c) Cc1nc(N2CC[C@H](N3CCC[C@@H]3C)C2)ccc1N1CCC2(CCOCC2)C1=O
Ask: Order each entry by recorded Ki, climbing from the minimum. Lab note: final answer is the ordered label list.
Reply: c, a, b
(c: 0.0071 µM, a: 0.0175 µM, b: 0.0389 µM)

====

Biological target: rhesus (Macacca Mulatta) H3 receptor (Macaca mulatta)
Sequence (Q865E1 1-445): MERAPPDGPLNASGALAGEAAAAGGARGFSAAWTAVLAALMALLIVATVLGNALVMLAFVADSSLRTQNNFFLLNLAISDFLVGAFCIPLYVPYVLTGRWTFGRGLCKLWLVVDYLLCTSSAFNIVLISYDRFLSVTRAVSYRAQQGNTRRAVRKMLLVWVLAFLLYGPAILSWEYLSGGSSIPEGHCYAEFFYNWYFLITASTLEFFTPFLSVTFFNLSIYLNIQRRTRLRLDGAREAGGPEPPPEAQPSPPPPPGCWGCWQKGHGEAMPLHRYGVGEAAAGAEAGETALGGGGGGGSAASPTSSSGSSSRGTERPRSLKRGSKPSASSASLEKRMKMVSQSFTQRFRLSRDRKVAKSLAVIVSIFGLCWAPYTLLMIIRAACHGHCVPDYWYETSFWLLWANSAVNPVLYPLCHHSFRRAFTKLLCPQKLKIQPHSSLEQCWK
readout.type: Ki (nM)

(1) C[C@H]1CCCN1[C@H]1CCN(c2ncc(N3CCC4(CCOCC4)C3=O)cn2)C1
(2) Cc1nc(N2CC[C@@H](N3CCC[C@@H]3C)C2)ccc1N1CCC2(CCCCC2)C1=O
(3) C[C@H]1CCCN1[C@H]1CCN(c2cnc(N3CCC4(CCNCC4)C3=O)cn2)C1
Ask: Highest Ki first, then in falling order down to the smallest. Lab note: final answer is the ordered label list.
Reply: 2, 3, 1

Values were extracted from patent US9533995B2.
